Molecular target: Nuclear receptor subfamily 1 group I member 2 (Homo sapiens)
Sequence (O75469 whole entry): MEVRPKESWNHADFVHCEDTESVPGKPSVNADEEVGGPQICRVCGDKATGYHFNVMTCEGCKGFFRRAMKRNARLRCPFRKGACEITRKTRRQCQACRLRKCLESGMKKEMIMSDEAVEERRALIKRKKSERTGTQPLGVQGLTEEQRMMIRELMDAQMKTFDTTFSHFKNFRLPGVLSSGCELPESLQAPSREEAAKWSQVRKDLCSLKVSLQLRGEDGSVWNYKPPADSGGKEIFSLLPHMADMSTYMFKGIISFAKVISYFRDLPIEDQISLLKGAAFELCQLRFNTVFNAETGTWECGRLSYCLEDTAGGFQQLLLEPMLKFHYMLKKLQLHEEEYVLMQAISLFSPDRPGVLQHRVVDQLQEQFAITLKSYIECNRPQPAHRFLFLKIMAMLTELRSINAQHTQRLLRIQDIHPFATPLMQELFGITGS
Assay: Activation of PXR (unknown origin)
pEC50: −log10 of the molar value.

>  <compound>
C[C@]1(c2ccccc2)CN(C(=O)c2ccccc2)C[C@H]1c1ccc(C(O)(C(F)(F)F)C(F)(F)F)cc1 (racemic)

>  <pEC50>
6.13

$$$$
>  <compound>
CCNC(=O)N1C[C@@H](c2ccc(C(O)(C(F)(F)F)C(F)(F)F)cc2)[C@@](C)(c2ccccc2)C1 (racemic)

>  <pEC50>
5.75

$$$$
>  <compound>
COCC(=O)N1CCC(C(=O)N2C[C@@H](c3ccc(C(O)(C(F)(F)F)C(F)(F)F)cc3)[C@@](C)(c3ccc(F)cc3)C2)CC1

>  <pEC50>
5.81

$$$$
>  <compound>
C[C@]1(c2ccc(F)cc2)CN(C(=O)C2CCN(C(N)=O)CC2)C[C@H]1c1ccc(C(O)(C(F)(F)F)C(F)(F)F)cc1

>  <pEC50>
5.97

$$$$
>  <compound>
C[C@@]1(c2ccc(F)cc2)CN(C(=O)NCc2ccccc2)C[C@@H]1c1ccc(C(O)(C(F)(F)F)C(F)(F)F)cc1

>  <pEC50>
6.33

$$$$
